The reported measurements were obtained from paper PMC9352680.

Target: T1, PUF4 RNA-binding domain (Saccharomyces cerevisiae, UniProt P25339 537-888)
T1 sequence: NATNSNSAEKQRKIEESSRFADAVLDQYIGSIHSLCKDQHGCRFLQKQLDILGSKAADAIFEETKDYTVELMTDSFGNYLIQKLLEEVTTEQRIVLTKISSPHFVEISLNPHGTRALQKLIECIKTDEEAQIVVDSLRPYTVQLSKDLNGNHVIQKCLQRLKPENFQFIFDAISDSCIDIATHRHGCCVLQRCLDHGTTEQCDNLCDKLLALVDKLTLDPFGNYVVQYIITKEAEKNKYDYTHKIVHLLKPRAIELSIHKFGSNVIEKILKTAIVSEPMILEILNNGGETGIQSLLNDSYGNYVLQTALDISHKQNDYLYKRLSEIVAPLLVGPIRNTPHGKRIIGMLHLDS
Experiment: Mg; RNA-MaP; 20 mM Na-HEPES pH 7.4, 30 mM KOAc, 0.75 mM MgCl2, 0.1% Tween-20, 5% glycerol, 0.1 mg/mL BSA, 2 mM DTT; 25 C; 0.0125-409.6 nM protein
Conditions: tags: N-His6-TEV cleaved; C-SNAP kept, Cy3B-labelled; label: tethered on chip by stalled RNA polymerase
pKd: recorded values
# pKd = -log10(concentration in molar units)

- binder: "Id_ii_S4_P3E.3_K3.2_C3.2_H3.2_A3.1_F3.1_T3.2_[A10G] (ssRNA) RNA: UUUGACAACUGAUCGUUCUUUCUCUUAUAUAUAUGUUCUUUCUCGAUCAGUUGUCUUU"
  pKd: 6.56
- binder: "UCUCUUUGUAUACAUUCUCUU (ssRNA) [Ic_S1_P4E.1_K4.1_C4.1_H4.1_A4.1_[T7C]_F4.1_[T8A]_[A9T]_T4.1]"
  pKd: 7.31
- binder: "ACAAACUCUAUAUAUAUCACAAAC (ssRNA) [Id_ii_S3_P3E.3_K3.2_C3.2_[C-2T]_[T-1C]_H3.2_A3.1_F3.1_T3.2_[A10C]]"
  pKd: 6.31
- binder: "UCUCUUUAUAUAUAUUAGCUCUCUU (ssRNA) [Id_ii_S1_P4E.3_K4.2_C4.2_[C-2T]_[T-1A]_H4.2_A4.1_F4.1_T4.2_[T11C]]"
  pKd: 7.90
- binder: "Id_ii_S2_P4E.3_K4.2_C4.2_[C-2A]_[T-1G]_H4.2_A4.1_F4.1_T4.2_[G10T]_[T11C] (ssRNA) RNA: UUUGAUUAAUAUGAUAUCGUUCUUUCUAGUAUAUAUUAUCUUCUUUCUCGAUAUCAUAUUAAUCUUU"
  pKd: 6.55

Next:
So, UCUCUUUGUAUAUAUUAUCUCUCUU (ssRNA) [Id_ii_S1_P4E.3_K4.2_C4.2_[C-2T]_[T-1G]_H4.2_A4.1_F4.1_T4.2_[G10T]_[T11C]] ? Its pKd was 8.33
